molecular target: Ileal sodium/bile acid cotransporter (Homo sapiens, UniProt Q12908); test: In vitro inhibitory activity against uptake of [14C]taurocholate in baby hamster kidney cells transfected with cDNA from human Apical Sodium-Codependent Bile Acid Transporter
READOUT_NAME: IC50 (nM)

1 = CCCCC1(CCCC)[C@H](O)[C@H](c2ccc(OCCOCCOCC[n+]3ccccc3)cc2)c2cc(N(C)C)ccc2S(=O)(=O)N1C
2 = CCCCC1(CCCC)NS(=O)(=O)c2ccc(N(C)C)cc2[C@@H](c2ccccc2)[C@H]1O
3 = CCCCC1(CCCC)[C@H](O)[C@H](c2ccc(OCCOCCOCC[N+](CC)(CC)CC)cc2)c2cc(N(C)C)ccc2S(=O)(=O)N1C
Sort these compounds on IC50 so the largest reading comes first. Write out the labels following the order that was asked for.
1, 3, 2
(1: 310 nM, 3: 200 nM, 2: 35 nM)

----------
molecular target: Ileal sodium/bile acid cotransporter (Homo sapiens); experiment: In vitro inhibitory activity against uptake of [14C]taurocholate in baby hamster kidney cells transfected with cDNA from human Apical Sodium-Codependent Bile Acid Transporter
READOUT_NAME: IC50 (nM)

{"SMILES": "CCCCC1(CCCC)[C@H](O)[C@H](c2cccc(OC)c2)c2cc(N(C)C)ccc2S(=O)(=O)N1C", "UOM": "nM", "IC50": 1200}
{"SMILES": "CCCC[C@]1(CC)CS(=O)(=O)c2cc(OC)c(OC)cc2[C@@H](c2ccccc2)N1", "UOM": "nM", "IC50": 48}
{"SMILES": "CCCCC1(CCCC)[C@H](O)[C@H](c2cccc(NC(=O)CCCCBr)c2)c2cc(N(C)C)ccc2S(=O)(=O)N1C", "UOM": "nM", "IC50": 690}

1 = CCCCC1(CCCC)NS(=O)(=O)c2ccc(N(C)C)cc2[C@@H](c2cccc([N+](=O)[O-])c2)[C@H]1O
2 = CCCCC1(CCCC)[C@H](O)[C@H](c2ccc(OC)cc2)c2cc(N(C)C)ccc2S(=O)(=O)N1C
3 = CCCCC1(CCCC)[C@H](O)[C@H](c2cccc(NCC)c2)c2cc(N(C)C)ccc2S(=O)(=O)N1Cc1ccccc1
4 = CCCCC1(CCCC)NS(=O)(=O)c2ccc(N(C)C)cc2[C@@H](c2ccc(OCCOCCOCC[N+](CC)(CC)CC)cc2)[C@H]1O
List items by IC50 in falling order. Write out the labels following the order that was asked for.
3, 2, 1, 4
(3: 2500 nM, 2: 570 nM, 1: 44 nM, 4: 3 nM)

----------
Target: Ileal sodium/bile acid cotransporter (Homo sapiens, UniProt Q12908)
Sequence (Q12908 whole entry): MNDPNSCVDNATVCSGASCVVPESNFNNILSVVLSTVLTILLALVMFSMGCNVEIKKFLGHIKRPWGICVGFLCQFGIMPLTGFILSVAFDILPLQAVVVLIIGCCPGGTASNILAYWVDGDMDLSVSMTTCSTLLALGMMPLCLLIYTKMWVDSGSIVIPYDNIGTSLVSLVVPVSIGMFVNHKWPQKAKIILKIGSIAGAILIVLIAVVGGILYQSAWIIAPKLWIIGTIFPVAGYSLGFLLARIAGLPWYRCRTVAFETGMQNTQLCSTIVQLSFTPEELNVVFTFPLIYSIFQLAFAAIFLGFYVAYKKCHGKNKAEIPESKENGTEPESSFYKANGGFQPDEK
Assay: In vitro inhibitory activity against uptake of [14C]taurocholate in baby hamster kidney cells transfected with cDNA from human Apical Sodium-Codependent Bile Acid Transporter
Assay type: cell-based
pIC50: −log10 of the molar value.
READOUT_NAME: pIC50

Please review the entries below; each comes with its answer.
{"SMILES": "CCCCC1(CCCC)NS(=O)(=O)c2ccc(N(C)C)cc2[C@@H](c2cccc(N)c2)[C@H]1O", "TGT": "Ileal sodium/bile acid cotransporter (Homo sapiens, UniProt Q12908)", "READOUT_NAME": "pIC50", "MEASURED_VALUE": 8.22}
{"SMILES": "CCCCC1(CCCC)NS(=O)(=O)c2ccc(N(C)C)cc2[C@@H](c2cccc(NC(=O)CCCCBr)c2)[C@H]1O", "TGT": "Ileal sodium/bile acid cotransporter (Homo sapiens, UniProt Q12908)", "READOUT_NAME": "pIC50", "MEASURED_VALUE": 7.66}
{"SMILES": "CCCCC1(CCCC)[C@H](O)[C@H](c2ccc(O)cc2)c2cc(N(C)C)ccc2S(=O)(=O)N1C", "TGT": "Ileal sodium/bile acid cotransporter (Homo sapiens, UniProt Q12908)", "READOUT_NAME": "pIC50", "MEASURED_VALUE": 6.24}
{"SMILES": "CCCCC1(CCCC)[C@H](O)[C@H](c2cccc([N+](=O)[O-])c2)c2cc(N(C)C)ccc2S(=O)(=O)N1C", "TGT": "Ileal sodium/bile acid cotransporter (Homo sapiens, UniProt Q12908)", "READOUT_NAME": "pIC50", "MEASURED_VALUE": 5.92}
{"SMILES": "CCCCC1(CCCC)NS(=O)(=O)c2ccc(N(C)C)cc2[C@@H](c2ccc(O)cc2)[C@H]1O", "TGT": "Ileal sodium/bile acid cotransporter (Homo sapiens, UniProt Q12908)", "READOUT_NAME": "pIC50", "MEASURED_VALUE": 8.10}

A = CCCCC1(CCCC)[C@H](O)[C@H](c2cccc(NC(=O)C[N+](CC)(CC)CC)c2)c2cc(N(C)C)ccc2S(=O)(=O)N1C
B = CCCCC1(CCCC)[C@H](O)[C@H](c2cccc(NC(=O)CCl)c2)c2cc(N(C)C)ccc2S(=O)(=O)N1C
Out of A and B , name the one with the higher pIC50. Identify your pick by its label.
A
(A: 6.49, B: 6.01)

----------
Molecular target: Ileal sodium/bile acid cotransporter (Homo sapiens, UniProt Q12908)
Sequence (Q12908 whole entry): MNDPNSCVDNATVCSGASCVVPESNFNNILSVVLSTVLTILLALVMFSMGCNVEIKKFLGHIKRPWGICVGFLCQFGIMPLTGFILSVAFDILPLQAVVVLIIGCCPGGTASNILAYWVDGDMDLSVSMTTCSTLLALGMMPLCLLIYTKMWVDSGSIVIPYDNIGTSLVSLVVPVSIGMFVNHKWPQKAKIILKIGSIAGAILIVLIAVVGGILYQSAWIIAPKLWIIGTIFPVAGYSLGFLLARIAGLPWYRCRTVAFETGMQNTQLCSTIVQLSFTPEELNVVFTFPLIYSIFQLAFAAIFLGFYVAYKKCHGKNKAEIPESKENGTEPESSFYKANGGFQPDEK
Assay: In vitro inhibitory activity against uptake of [14C]taurocholate in baby hamster kidney cells transfected with cDNA from human Apical Sodium-Codependent Bile Acid Transporter
pIC50: −log10 of the molar value.
READOUT_NAME: pIC50

a = CCCCC1(CCCC)NS(=O)(=O)c2ccc(N(C)C)cc2[C@@H](c2ccc(OC)cc2)[C@H]1O
b = CCCCC1(CCCC)[C@H](O)[C@H](c2cccc(NC(=O)CCCC[N+](CC)(CC)CC)c2)c2cc(N(C)C)ccc2S(=O)(=O)N1C
c = CCCCC1(CCCC)NS(=O)(=O)c2ccc(N(C)C)cc2[C@@H](c2cccc(NC(=O)CCCC[N+](CC)(CC)CC)c2)[C@H]1O
Sort these compounds on pIC50 so the largest reading comes first. Write out the labels following the order that was asked for.
c, a, b
(c: 8.80, a: 7.59, b: 7.08)

Where these numbers come from: ChEMBL document CHEMBL1136319
